# Test system: P388
# TEST PROTOCOL: In vitro cytotoxicity against P388-mouse leukemia cells.
# Assay type: functional, cell-based
IC50 by entry:
Report only the number, with the unit µg/mL understood.

Some solved cases for reference:
- CC(=O)O[C@@H]1C2=C(C)[C@@H](OC(=O)[C@H](O)[C@@H](NC(=O)c3ccco3)c3ccccc3)C[C@@](O)([C@@H](OC(=O)c3ccccc3)[C@@H]3[C@]4(OC(C)=O)CO[C@@H]4C[C@H](O)[C@@]3(C)[C@H]1O)C2(C)C: 0.034
- CC(=O)O[C@@H]1C2=C(C)[C@@H](OC(=O)[C@H](O)[C@@H](NC(=O)OCC(C)C)c3ccccc3)C[C@@](O)([C@@H](OC(=O)c3ccccc3)[C@@H]3[C@]4(OC(C)=O)CO[C@@H]4C[C@H](O)[C@@]3(C)[C@H]1O)C2(C)C: 0.028

Lab note: measured IC50 of CC(=O)O[C@@H]1C2=C(C)[C@@H](OC(=O)[C@H](O)[C@@H](NC(=O)OC34CC5CC(CC(C5)C3)C4)c3ccccc3)C[C@@](O)([C@@H](OC(=O)c3ccccc3)[C@@H]3[C@]4(OC(C)=O)CO[C@@H]4C[C@H](O)[C@@]3(C)[C@H]1O)C2(C)C was 0.01
